Known sfGFP reporter fluorescence of a selection of variants
B1: library; a variant is named by its letters at X, in order (parent)
chain: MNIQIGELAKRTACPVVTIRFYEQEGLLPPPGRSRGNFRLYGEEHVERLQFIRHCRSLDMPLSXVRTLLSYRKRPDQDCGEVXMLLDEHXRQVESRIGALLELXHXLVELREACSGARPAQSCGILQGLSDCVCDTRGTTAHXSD

Variants of: B1
Test: sfGFP reporter fluorescence (15 h) (µM FITC); higher = stronger transcriptional activation
Conditions: library round: Round 3b; ligand: 1 µM Pb
No unit in the answer, please; the number alone is enough.

Below: 5 variants and their reported sfGFP reporter fluorescence.
Mutant label: DNAVET
Reported measurement: 0.0536

Mutant label: KFAKHT
Reported measurement: 0.777

Mutant label: DIAVAT
Reported measurement: 0.096

Mutant label: DIATAP
Reported measurement: 0.087

Mutant label: DNATAR
Reported measurement: 0.0477

The variant listed as DIITET shows sfGFP reporter fluorescence equal to 0.0535

The variant listed as DNAVAR shows sfGFP reporter fluorescence equal to 0.0485

The variant listed as KIIVAT shows sfGFP reporter fluorescence equal to 0.424
